Reference source: ChEMBL document CHEMBL3860105

- Tested on: Mycobacterium tuberculosis
- Assay Summary: Antimicrobial activity against Mycobacterium tuberculosis K204 at 100 uM incubation for 6 days by alamar blue assay
- Format: ADME
- Settings: 144 h
Property Label: Activity

See these solved cases before continuing.
For COc1cccc(N(C)S(=O)(=O)c2ccc3[nH]c(=O)c(=O)[nH]c3c2)c1 the molecule record lists Activity as Non-Toxic

For COc1ccccc1N(C)S(=O)(=O)c1ccc2[nH]c(=O)c(=O)[nH]c2c1 the molecule record lists Activity as Non-Toxic

For CN(c1ccccc1)S(=O)(=O)c1ccc2[nH]c(=O)c(=O)[nH]c2c1 the molecule record lists Activity as Non-Toxic

For O=c1[nH]c2ccc(S(=O)(=O)Nc3ccc(Br)cc3)cc2[nH]c1=O the molecule record lists Activity as Non-Toxic

For CN(c1cccc(C(C)(C)C)c1)S(=O)(=O)c1ccc2[nH]c(=O)c(=O)[nH]c2c1 the molecule record lists Activity as Non-Toxic

Next:
For CC(C)c1ccc(NS(=O)(=O)c2ccc3[nH]c(=O)c(=O)[nH]c3c2)cc1 the molecule record lists Activity as Non-Toxic

For O=c1[nH]c2ccc(S(=O)(=O)Nc3ccccc3)cc2[nH]c1=O the molecule record lists Activity as Non-Toxic

For COc1cc(N(C)S(=O)(=O)c2ccc3[nH]c(=O)c(=O)[nH]c3c2)cc2ccccc12 the molecule record lists Activity as Non-Toxic

For COc1cc(OC)cc(N(C)S(=O)(=O)c2ccc3[nH]c(=O)c(=O)[nH]c3c2)c1 the molecule record lists Activity as Non-Toxic

For CN(c1ccc2ccccc2c1)S(=O)(=O)c1ccc2[nH]c(=O)c(=O)[nH]c2c1 the molecule record lists Activity as Non-Toxic

----------
Reported MIC values follow for various compounds
- Test system: Mycobacterium tuberculosis
- Assay Summary: Inhibition of Mycobacterium tuberculosis K204 acetyltransferase Eis assessed as potentiation of kanamycin A-induced antimicrobial activity by measuring kanamycin A MIC level at 100 uM pre-incubated for 24 hrs before kanamycin A addition followed by incubation for 6 days by alamar blue assay (Rvb kanamycin A alone MIC = 10 ug/ml)
Numbers only; they are read as µg/mL.

Observed MIC, Mycobacterium tuberculosis, CC(C)c1ccc(NS(=O)(=O)c2ccc3[nH]c(=O)c(=O)[nH]c3c2)cc1 : 5

Observed MIC, Mycobacterium tuberculosis, O=c1[nH]c2ccc(S(=O)(=O)Nc3ccccc3)cc2[nH]c1=O : 10

# next compound below
Observed MIC, Mycobacterium tuberculosis, O=c1[nH]c2ccc(S(=O)(=O)Nc3ccc(Br)cc3)cc2[nH]c1=O : 5

----------
- System: Mycobacterium tuberculosis
- Assay Summary: Inhibition of Mycobacterium tuberculosis K204 acetyltransferase Eis assessed as potentiation of kanamycin A-induced antimicrobial activity by measuring kanamycin A MIC level at 100 uM pre-incubated for 24 hrs before kanamycin A addition followed by incubation for 6 days by alamar blue assay (Rvb kanamycin A alone MIC = 10 ug/ml)
Reported MIC values follow for various compounds
Numbers only; they are read as µg/mL.

For COc1cc(N(C)S(=O)(=O)c2ccc3[nH]c(=O)c(=O)[nH]c3c2)cc2ccccc12 the compound record lists MIC as 10

For CN(c1ccccc1)S(=O)(=O)c1ccc2[nH]c(=O)c(=O)[nH]c2c1 the compound record lists MIC as 5

For COc1ccccc1N(C)S(=O)(=O)c1ccc2[nH]c(=O)c(=O)[nH]c2c1 the compound record lists MIC as 10
